Entry source: patent US20260201008A1

# targetEntity: human GLP-1 receptor (hGLP1R) (human, UniProt P43220 24-463)
# protocolNotes: cell-based or functional assay
Numbered stars: 1 amine (or outer) side, 2 acyl side, 3 side chain; on linkers, the order of the positions; unused ones are H or OH. Square brackets hold non-standard residues; d marks the D form. Side chains are listed from the residue outwards. Ends that are not written are not given here. * marks the point of attachment. C20 diacid = O=C(O)CCCCCCCCCCCCCCCCCCC(=O)*; γGlu = O=C(O)[C@H](CCC(=O)[*:2])N[*:1]; AEEA = NCCOCCOCC(=O)O; Aib = CC(C)(N)C(=O)O
metric: pEC50 hGLPR1

Some entries whose results are on file:
binder	metric	result
H[Aib]EGTFTSDVSELK([AEEA-AEEA-γGlu-C20 diacid])EEAASQRFLEHLV-NH2 [SEQ ID NO: 87]	pEC50 hGLPR1	10.4 -log M
H[Aib]EGTFTSDVSRLK([AEEA-AEEA-γGlu-C20 diacid])ELAAAQRFLEHLV-NH2 [SEQ ID NO: 9]	pEC50 hGLPR1	10.2 -log M
H[Aib]EGTFTSDVSTLK([AEEA-AEEA-γGlu-C20 diacid])EFAAEQRFLEHLV-NH2 [SEQ ID NO: 89]	pEC50 hGLPR1	10.7 -log M
H[Aib]EGTFTSDVSRLK([AEEA-AEEA-γGlu-C20 diacid])ELAASQRFLEHLV-NH2 [SEQ ID NO: 19]	pEC50 hGLPR1	10.1 -log M

Moving on to another binder below.
Returns the measured pEC50 hGLPR1 for the input binder. Input: H[Aib]EGTFTSDVSTLKE[Aib]AAEQRFLEHLV-NH2 (not fully specified (residue 14)) [SEQ ID NO: 16]
10.4 -log M
